# target_or_system: Non-receptor tyrosine-protein kinase TNK1 (Homo sapiens, UniProt Q13470); note: in the data inactive means no Kd found up to 30 µM
# Sequence (Q13470 whole entry): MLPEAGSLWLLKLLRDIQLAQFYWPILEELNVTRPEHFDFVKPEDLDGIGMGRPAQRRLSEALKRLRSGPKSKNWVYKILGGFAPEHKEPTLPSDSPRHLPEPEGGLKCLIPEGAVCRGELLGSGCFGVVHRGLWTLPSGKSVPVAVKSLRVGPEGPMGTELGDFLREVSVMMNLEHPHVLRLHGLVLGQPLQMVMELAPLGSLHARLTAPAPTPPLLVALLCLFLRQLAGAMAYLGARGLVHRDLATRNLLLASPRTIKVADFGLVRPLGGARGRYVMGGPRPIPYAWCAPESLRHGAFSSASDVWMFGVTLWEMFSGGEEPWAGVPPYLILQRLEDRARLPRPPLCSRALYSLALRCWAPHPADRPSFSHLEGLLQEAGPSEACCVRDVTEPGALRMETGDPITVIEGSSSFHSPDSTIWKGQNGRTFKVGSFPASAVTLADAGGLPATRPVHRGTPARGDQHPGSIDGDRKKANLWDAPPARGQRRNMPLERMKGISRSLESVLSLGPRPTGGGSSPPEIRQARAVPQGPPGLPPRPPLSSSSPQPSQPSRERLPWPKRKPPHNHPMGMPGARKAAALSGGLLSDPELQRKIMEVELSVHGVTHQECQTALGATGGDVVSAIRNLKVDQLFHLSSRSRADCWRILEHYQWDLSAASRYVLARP
The source made the active and inactive calls.
Outcome codes: 1 (active), 0 (inactive)

molecule="C[C@@H](c1ccc2nccn2c1)n1nnc2ncc(-c3cnn(C)c3)nc21 [SAVOLITINIB]" label_class=0
molecule="C[C@@H](Nc1cc(F)cc(F)c1)c1cc(C(=O)N(C)C)cc2c(=O)cc(N3CCOCC3)oc12 [AZD-8186]" label_class=0
molecule="Cc1ccc(NC(=O)c2ccc(CN3CC[C@H](N(C)C)C3)c(C(F)(F)F)c2)cc1Nc1nccc(-c2cncnc2)n1 [BAFETINIB]" label_class=0
molecule="CCn1c(=O)c(-c2cc[nH]n2)cc2c(C)nc(N)nc21 [VOXTALISIB]" label_class=0
molecule="CO[C@H]1C[C@@H]2CC[C@@H](C)[C@@](O)(O2)C(=O)C(=O)N2CCCC[C@H]2C(=O)O[C@H]([C@H](C)C[C@@H]2CC[C@@H](OCCO)[C@H](OC)C2)CC(=O)[C@H](C)/C=C(\\C)[C@@H](O)[C@@H](OC)C(=O)[C@H](C)C[C@H](C)/C=C/C=C/C=C/1C [EVEROLIMUS]" label_class=0
molecule="O=C(Nc1cccc(Cl)c1)Nc1ncc(CCNc2ncnc3ccsc23)s1 [SNS-314]" label_class=0
molecule="CN1CCC(COc2cnc(-c3cccc(Cn4nc(-c5cccc(C#N)c5)ccc4=O)c3)nc2)CC1 [TEPOTINIB]" label_class=0
molecule="COc1cc(N2CCC(N3CCN(C)CC3)CC2)ccc1Nc1ncnc(Nc2ccccc2S(=O)(=O)C(C)C)n1 [ASP-3026]" label_class=1
molecule="CN(C)C(=O)c1cc2cnc(Nc3ccc(N4CCNCC4)cn3)nc2n1C1CCCC1 [RIBOCICLIB]" label_class=0
molecule="COc1cc2nccc(Oc3ccc(NC(=O)NC4CC4)c(Cl)c3)c2cc1C(N)=O [LENVATINIB]" label_class=0
molecule="CNC(=O)c1ccc(-c2cnc3ncc(Cc4ccc5ncccc5c4)n3n2)cc1F [CAPMATINIB]" label_class=0
molecule="Cn1cc(-c2ccc3nnc(C(F)(F)c4ccc5ncccc5c4)n3n2)cn1 [JNJ-38877605]" label_class=0
molecule=CN1CC[C@@H](c2c(O)cc(O)c3c(=O)cc(-c4ccccc4Cl)oc23)[C@@H]1CO label_class=0
molecule="C[C@@H]1CN(Cc2ccc(F)cc2)[C@@H](C)CN1C(=O)c1cc2c(C(=O)C(=O)N(C)C)cn(C)c2cc1Cl [TALMAPIMOD]" label_class=0
molecule="Cc1cc([C@@H](C)Nc2ccccc2C(=O)O)c2nc(N3CCOCC3)cc(=O)n2c1 [AZD-6482]" label_class=0
molecule="OCCn1cc(-c2cnc3nnn(Cc4ccc5ncccc5c4)c3n2)cn1 [PF-04217903]" label_class=0
molecule="O=C(O)[C@]1(Cc2cccc(Nc3nccs3)n2)CC[C@@H](Oc2cccc(Cl)c2F)CC1 [MK-5108]" label_class=1
molecule="Cc1cc2c(F)c(Oc3ncnn4cc(OC[C@@H](C)OC(=O)[C@H](C)N)c(C)c34)ccc2[nH]1 [BRIVANIB ALANINATE]" label_class=0
molecule="CC[C@H](Nc1ncnc2[nH]cnc12)c1nc2cccc(F)c2c(=O)n1-c1ccccc1 [IDELALISIB]" label_class=0
molecule="CCc1cnn2c(NCc3ccc[n+]([O-])c3)cc(N3CCCC[C@H]3CCO)nc12 [DINACICLIB]" label_class=0
